- Protocol summary: RP, Waters XBridge C18, 50 × 2.1 mm, 3.5 µm, 30 °C, 0.2 mL/min, estimated dead time 0.55 min; A: water + 0.1% formic acid, pH 3; B: methanol + 0.1% formic acid, pH 3; gradient (min/%B) 0/10 4/50 17/95 25/95 25.1/10 30/10
- Recorded conditions: stereoisomer not certain
Record form. Attribute: LC retention time. Fill in for each entry.
One number for each entry, in min.

{"Compound": "CNC(=O)CSP(=S)(OC)OC [Dimethoate]", "Units text": "min", "Number": 5.2}
{"Compound": "CC(C)OC(=O)C(C)(C)Oc1ccc(C(=O)c2ccc(Cl)cc2)cc1 [Fenofibrate]", "Units text": "min", "Number": 15.7}
{"Compound": "CC(C)c1ccc(NC(=O)N(C)C)cc1 [Isoproturon]", "Units text": "min", "Number": 8.7}
{"Compound": "CCCC1COC(Cn2cncn2)(c2ccc(Cl)cc2Cl)O1 (stereo not drawn) [Propiconazole]", "Units text": "min", "Number": 13.1}
{"Compound": "CCC1OC(=O)CC(O)C(C)C(OC2OC(C)C(OC3CC(C)(O)C(O)C(C)O3)C(N(C)C)C2O)C(CC=O)CC(C)C(=O)C=CC(C)=CC1COC1OC(C)C(O)C(OC)C1OC (stereo not drawn) [Tylosin]", "Units text": "min", "Number": 8.1}
{"Compound": "O=C(O)C(F)(F)C(F)(F)C(F)(F)C(F)(F)C(F)(F)C(F)(F)C(F)(F)F [Perfluorooctanoic acid]", "Units text": "min", "Number": 12.6}

Please supply LC retention time for each of the following items, keeping them in order.
1. CC(C)c1c(C(=O)Nc2ccccc2)c(-c2ccccc2)c(-c2ccc(F)cc2)n1CCC(O)CC(O)CC(=O)O (stereo not drawn) [Atorvastatin]
2. CCC(CO)NCCNC(CC)CO (stereo not drawn) [Ethambutol]

12.4
9.6

---

Record form. Attribute: LC retention time. Fill in for each entry.
- Protocol summary: RP, Waters XBridge C18, 50 × 2.1 mm, 3.5 µm, 30 °C, 0.2 mL/min, estimated dead time 0.55 min; A: water + 0.1% formic acid, pH 3; B: methanol + 0.1% formic acid, pH 3; gradient (min/%B) 0/10 4/50 17/95 25/95 25.1/10 30/10
- Recorded conditions: stereoisomer not certain
Numbers only, in min.

Worked set:
{"Compound": "Cn1ncc(N)c(Cl)c1=O [Chloridazone-methyl-desphenyl]", "Units text": "min", "LC retention time": 2.2}
{"Compound": "CCNc1nc(Cl)nc(NC(C)C)n1 [Atrazine]", "Units text": "min", "LC retention time": 8.3}

Please supply LC retention time for each of the following items, keeping them in order.
1. COc1cc(Cc2cnc(N)nc2N)cc(OC)c1OC [Trimethoprim]
2. CC(=O)OC1C(C)OC(n2cc(F)c(N)nc2=O)C1OC(C)=O (configuration not stated) [2',3'-di-O-acetyl-5'-deoxy-5-fluorocytidine]

[3.8, 5.2]

Please supply LC retention time for each of the following items, keeping them in order.
1. CCC(C)C(=O)OC1CC(O)C=C2C=CC(C)C(CCC(O)CC(O)CC(=O)O)C21 (configuration not stated) [Pravastatin]
2. CCC1OC(=O)C(C)C(OC2CC(C)(OC)C(O)C(C)O2)C(C)C(OC2OC(C)CC(N(C)C)C2O)C(C)(O)CC(C)C(=O)C(C)C(O)C1(C)O (configuration not stated) [Erythromycin]

1: 9.2; 2: 8.5

Recorded result, O=P(O)(OCCC(F)(F)C(F)(F)C(F)(F)C(F)(F)C(F)(F)C(F)(F)F)OCCC(F)(F)C(F)(F)C(F)(F)C(F)(F)C(F)(F)C(F)(F)F [Bisperfluorooctyl phosphate] , LC retention time: 18.1

Data provenance: the RepoRT retention time repository (doi:10.1021/es4044374)
